- System: A498 renal
- assay-comment: NCI-60 one-dose screen, 48 h
- stated-conditions: 10 µM
About 83,000 compounds went through this panel and 20% of them were active in at least one assay; those are over-represented in the sample as a whole. Active and inactive are the calls of the source. The calls were made as follows: active = growth percent below 10; inactive = the rest.
The reply should name one outcome from yes (1) (active), no (0) (inactive)

{"molecule": "O=S(=O)(NC1c2ccccc2Oc2ccccc21)c1ccccc1", "target-or-test-system": "A498 renal", "category": "no (0)"}

Exercise: What is the recorded call for this molecule in the test? "CS(=O)(=O)Nc1ccc([N+](=O)[O-])cc1Oc1ccccc1"
Key: no (0)

Exercise: What is the recorded call for this molecule in the test? "COc1cc(-c2cc(-c3ccc(C)cc3)nc3nc(N)[nH]c(=O)c23)ccc1Oc1ccnc2cc(Cl)ccc12"
Key: no (0)

Exercise: What is the recorded call for this molecule in the test? COc1cc(C2C=C(c3ccc(Cl)c(Cl)c3)N=C3SC(C)=CN32)cc(OC)c1OC (stereo not given)
Key: no (0)

* * *

- System: K-562 leukemia
- assay-comment: NCI-60 one-dose screen, 48 h
- stated-conditions: 10 µM
Compounds without any hit were thinned out: in the full panel of roughly 83,000, 20% have a hit. Calls of active or inactive are those of the source. Rule for the calls: active = growth percent below 10; inactive = the rest.
The reply should name one outcome from 1 (yes) = active, 0 (no) = inactive

Solved cases (3 shown):
{"structure-smiles": "COc1ccc(-c2nc(-c3nc4ccc(OC)cc4[nH]3)c3ccccn23)cc1", "target-or-test-system": "K-562 leukemia", "category": "0 (no)"}
{"structure-smiles": "COc1ccc(-c2nc(NC(=O)CS(=O)(=O)c3ccc(F)cc3)sc2C)cc1", "target-or-test-system": "K-562 leukemia", "category": "0 (no)"}
{"structure-smiles": "COC(=O)[C@]12CC[C@@H](C)[C@H](C)[C@@H]1C1=CC[C@@H]3[C@@]4(C)CC(=O)[C@H](O)[C@@](C)(CO)[C@@H]4C(=O)C[C@@]3(C)[C@]1(C)CC2", "target-or-test-system": "K-562 leukemia", "category": "1 (yes)"}

Here's the next entry for you.
Exercise: What is the recorded call for this compound in the test? "O=CNc1c(Cl)cc2c(c1Cl)Cc1cc([N+](=O)[O-])ccc1-2"
Key: 0 (no)

* * *

Listed here: items and their measured growth.
- Tested on: NCI-H322M lung
- assay-comment: NCI-60 one-dose screen, 48 h (100 = growth as untreated, 0 = no growth, -100 = all killed)
- stated-conditions: 10 µM
The panel holds about 83,000 compounds, 20% with a hit somewhere; the sample as a whole holds those more often.
Just the number in %, nothing appended.

Look over these answered cases.
{"compound": "O=C1CC[C@@H](C(=O)N[C@H]2CSSC[C@@H](C(=O)N/C=C/c3ccc(O)cc3)NC(=O)[C@H](Cc3ccccc3)NC(=O)[C@@H]3CCCN3C(=O)[C@@H]3CCCN3C2=O)N1", "growth / %": 108}
{"compound": "CC(C)c1ncc(CO)n1Cc1c(Cl)cccc1Cl", "growth / %": 99.7}
{"compound": "COc1ccc(C2C=C(c3ccc(OC)c(OC)c3)N=C3SC=CN32)c(Br)c1 (stereo unspecified)", "growth / %": 87.5}
{"compound": "O=C(OCc1ncc(-c2ccc(C(F)(F)F)cc2)c(NC2CCCCCC2)n1)c1c(F)c(F)c(F)c(F)c1F", "growth / %": 87.6}
{"compound": "COc1ccc(C2C=C(c3ccc(Cl)cc3)N=C3SC=CN32)c(Br)c1 (stereo unspecified)", "growth / %": 112}
{"compound": "COc1ccc(C2C=C(c3ccc(Cl)c(Cl)c3)N=C3SC(C)=CN32)cc1OC (stereo unspecified)", "growth / %": 71.7}

Exercise: Look at this compound and give its reported growth. "Cc1cc(OI)c(C(C)C)cc1-c1cc(C(C)C)c(OI)cc1C"
Key: 95.9

Exercise: Look at this compound and give its reported growth. "C/C(=N/NC(=O)c1sc(=S)n(C)c1N)c1cc2cc(Cl)ccc2o1"
Key: 88.1

* * *

- System: LOX IMVI melanoma
- assay-comment: NCI-60 one-dose screen, 48 h (100 = growth as untreated, 0 = no growth, -100 = all killed)
- stated-conditions: 10 µM
About 83,000 compounds went through this panel and 20% of them were active in at least one assay; those are over-represented in the sample as a whole.
Listed here: items and their measured growth.
Just the number in %, nothing appended.

Look over these answered cases.
{"structure-smiles": "O=C(O)CN1C(=O)C=CC1=O", "recorded-result": 102}
{"structure-smiles": "CCCCCCCCCCCCCC[n+]1ccccc1", "recorded-result": -72.1}

Consider now this further compound.
Exercise: Look at this compound and give its reported growth. "CCCc1ccnc(NS(=O)(=O)c2ccc(N)cc2)n1"
Key: 82.9

* * *

- Tested on: A498 renal
- assay-comment: NCI-60 one-dose screen, 48 h (100 = growth as untreated, 0 = no growth, -100 = all killed)
- stated-conditions: 10 µM
Compounds without any hit were thinned out: in the full panel of roughly 83,000, 20% have a hit.
reported-endpoint: growth (%)
Just the number in %, nothing appended.

Look over these answered cases.
{"molecule": "COc1cc(C2c3cc4c(cc3C(O)C(CO)C2CO)OCO4)cc(OC)c1OC (centres undefined)", "units-symbol": "%", "growth": -0.141}
{"molecule": "COc1ccc(S(=O)(=O)Nc2ccc(OCc3nnc(-c4ccc(Cl)cc4)o3)c(F)c2)cc1", "units-symbol": "%", "growth": 47}
{"molecule": "CCCCCCN=C(N)CCCCCCCCCCC(N)=NCCCCCC", "units-symbol": "%", "growth": 37}

Exercise: Look at this molecule and give its reported growth. "Cc1ccc2nc(-c3ccc(OCC(=O)N=Nc4c(O)[nH]c5ccccc45)cc3)[nH]c2c1"
Key: 93.2

* * *

- System: HCC-2998 colon
- assay-comment: NCI-60 one-dose screen, 48 h (100 = growth as untreated, 0 = no growth, -100 = all killed)
- stated-conditions: 10 µM
- Experimental: Growth inhibition of the HCC-2998 human tumor cell line is measured as a screen for anti-cancer activity. Cells are grown in 96 well plates and exposed to the test compound for 48 hours. Compounds are tested at a single concentration, which is 10^-5 M for most compounds. The reported endpoint is percent growth (GI% or GIPRCNT), where numbers from 0 - 100% represent growth inhibition, and numbers from -100% - 0 represent cell death. For example, a value of 40 represents 60% growth inhibition. […]
Compounds without any hit were thinned out: in the full panel of roughly 83,000, 20% have a hit.
So basically: is growth under 80%? Then t. Not under? Then f.

Solved cases (4 shown):
{"compound": "O=CNc1c(Cl)cc2c(c1Cl)Cc1cc([N+](=O)[O-])ccc1-2", "category": "f"}
{"compound": "FC(F)(F)c1ccc(-c2ncc(-c3ccc(C(F)(F)F)cc3)c(NCc3cc(C(F)(F)F)cc(C(F)(F)F)c3)n2)cc1", "category": "t"}
{"compound": "CCOC(=O)CSC(=S)SCC(=O)OCC", "category": "f"}
{"compound": "COc1nc2c(c(=O)[nH]1)C(c1ccc(Oc3ccnc4cc(Cl)ccc34)c(OC)c1)C=C(c1cc(OC)c(OC)c(OC)c1)N2 (stereo not given)", "category": "f"}

Here's the next entry for you.
Exercise: Report whether reported growth is lower than 80% (strictly) for "c1ccc(C2CCCCC2)c(OCCCCCN2CCNCC2)c1"
Key: t

* * *

- Tested on: UO-31 renal
- assay-comment: NCI-60 one-dose screen, 48 h
- stated-conditions: 10 µM
About 83,000 compounds went through this panel and 20% of them were active in at least one assay; those are over-represented in the sample as a whole. The source made the active and inactive calls. Rule for the calls: active = growth percent below 10; inactive = the rest.
The reply should name one outcome from active, inactive

Solved cases (6 shown):
{"compound": "COc1cc(-c2nc3ccccc3[nH]2)ccc1OCc1nnc(-c2ccc(Br)cc2)o1", "category": "inactive"}
{"compound": "CC1(C)CNC(=O)N1", "category": "inactive"}
{"compound": "CC1(C)CC(OCCCC[P+](c2ccccc2)(c2ccccc2)c2ccccc2)CC(C)(C)N1O", "category": "active"}
{"compound": "Nc1nc(SCC#CCCl)c2[nH]cnc2n1", "category": "active"}
{"compound": "COc1ccc(-c2nc(-c3nc4ccc(C)cc4[nH]3)c3ccccn23)cc1", "category": "inactive"}
{"compound": "CCCCNC(=O)Oc1ccc(/C(=C(\\C)c2ccc(OC)cc2)c2ccc(OCCN3CCCCC3)cc2)cc1", "category": "inactive"}

Exercise: What is the recorded call for this compound in the test? CCCCCC(=O)N1c2ccccc2NC2=C(C(=O)CC(c3ccc(OC)c(OC)c3)C2)C1c1ccc(C(F)(F)F)cc1 (centres undefined)
Key: inactive

Exercise: What is the recorded call for this compound in the test? "N=C(N)c1ccc(-c2ccc(-c3ccccc3)s2)cc1F"
Key: active

Exercise: What is the recorded call for this compound in the test? "CCOc1nc(-c2ccccc2)cc2c(O)c(C(=O)NC(C)C)[nH]c(=O)c12"
Key: inactive
